# Test system: Bacillus subtilis
# assay-summary: Antibacterial activity against Bacillus subtilis
# Format: functional
Note to self: use yes only for MIC readings below 70 mg/L; a reading exactly at 70 mg/L still gets no.

Worked examples, 8 molecules total:
CCOC(=O)C1=C(C)NC(C)=C(C(=O)OCC)C1c1ccc(NC(=O)Nc2ccc(F)cc2)cc1 ... no
CCOC(=O)C1=C(C)NC(C)=C(C(=O)OCC)C1c1ccc(NC(=O)Nc2ccc(C(F)(F)F)cc2)cc1 ... no
CCOC(=O)C1=C(C)NC(C)=C(C(=O)OCC)C1c1ccc(NC(=O)Nc2ccc(F)cc2F)cc1 ... yes
CCOC(=O)C1=C(C)NC(C)=C(C(=O)OCC)C1c1ccc(N)cc1 ... no
CCOC(=O)C1=C(C)NC(C)=C(C(=O)OCC)C1c1ccc(NC(=O)Nc2ccc(Cl)cc2)cc1 ... no
O=C(O)c1cn(C2CC2)c2cc(N3CCNCC3)c(F)cc2c1=O [CIPROFLOXACIN] ... yes
CCOC(=O)C1=C(C)NC(C)=C(C(=O)OCC)C1c1ccc(NC(=O)Nc2ccc(Cl)cc2Cl)cc1 ... yes
CCOC(=O)C1=C(C)NC(C)=C(C(=O)OCC)C1c1ccc(NC(=O)Nc2ccc(C#N)cc2)cc1 ... yes

# next molecule below
Q: Does the reported MIC of the following molecule sit strictly below 70 mg/L? CCOC(=O)C1=C(C)NC(C)=C(C(=O)OCC)C1c1ccc(NC(=O)Nc2cc(Cl)ccc2Cl)cc1
A: yes

====

# Test system: Escherichia coli
# assay-summary: Antibacterial activity against Escherichia coli
# Type: functional
Would you mind telling me the reported MIC of each entry?
Numbers only, in µg/mL.

Reference set, count: 5
CCOC(=O)C1=C(C)NC(C)=C(C(=O)OCC)C1c1ccc([N+](=O)[O-])cc1 ... 90
CCOC(=O)C1=C(C)NC(C)=C(C(=O)OCC)C1c1ccc(NC(=O)Nc2ccc(F)cc2F)cc1 ... 25
CCOC(=O)C1=C(C)NC(C)=C(C(=O)OCC)C1c1ccc(NC(=O)Nc2ccc(C(F)(F)F)cc2)cc1 ... 90
CCOC(=O)C1=C(C)NC(C)=C(C(=O)OCC)C1c1ccc(NC(=O)Nc2cc(Cl)ccc2Cl)cc1 ... 15
CCOC(=O)C1=C(C)NC(C)=C(C(=O)OCC)C1c1ccc(NC(=O)Nc2cc(C(F)(F)F)ccc2Cl)cc1 ... 65

Please look at the items below and tell me MIC for each one, in order.
1. CCOC(=O)C1=C(C)NC(C)=C(C(=O)OCC)C1c1ccc(NC(=O)Nc2ccc(Cl)cc2Cl)cc1
2. CCOC(=O)C1=C(C)NC(C)=C(C(=O)OCC)C1c1ccc(NC(=O)Nc2ccc(F)cc2)cc1
3. CCOC(=O)C1=C(C)NC(C)=C(C(=O)OCC)C1c1ccc(NC(=O)Nc2ccc(C#N)cc2)cc1

A:
10
65
15

====

# System: THP-1
# assay-summary: Anti-inflammatory activity in Homo sapiens (human) THP1 cells assessed as inhibition of LPS-induced TNFalpha production at 10 uM incubated for 30 min prior to LPS-challenge measured after 24 hr by ELISA
# Format: functional
reported-endpoint: inhibition at 10 µM (%)
Numbers only, in %.

Reference set, count: 4
CCOC(=O)C1=C(C)NC(C)=C(C(=O)OCC)C1c1ccc(NC(=O)Nc2cc(F)ccc2F)cc1 ... 78
CCOC(=O)C1=C(C)NC(C)=C(C(=O)OCC)C1c1ccc(NC(=O)Nc2cc(Cl)ccc2Cl)cc1 ... 36
CCOC(=O)C1=C(C)NC(C)=C(C(=O)OCC)C1c1ccc(N)cc1 ... 0
CCOC(=O)C1=C(C)NC(C)=C(C(=O)OCC)C1c1ccc(NC(=O)Nc2ccc(F)cc2F)cc1 ... 28

Please look at the items below and tell me inhibition at 10 µM for each one, in order.
1. CCOC(=O)C1=C(C)NC(C)=C(C(=O)OCC)C1c1ccc(NC(=O)Nc2ccc(F)cc2)cc1
2. CCOC(=O)C1=C(C)NC(C)=C(C(=O)OCC)C1c1ccc(NC(=O)Nc2ccc(Cl)cc2)cc1
3. CCOC(=O)C1=C(C)NC(C)=C(C(=O)OCC)C1c1ccc([N+](=O)[O-])cc1
4. CCOC(=O)C1=C(C)NC(C)=C(C(=O)OCC)C1c1ccc(NC(=O)Nc2ccc(C#N)cc2)cc1
5. CCOC(=O)C1=C(C)NC(C)=C(C(=O)OCC)C1c1ccc(NC(=O)Nc2ccc(Cl)cc2C(F)(F)F)cc1
6. CCOC(=O)C1=C(C)NC(C)=C(C(=O)OCC)C1c1ccc(NC(=O)Nc2ccc(Cl)cc2Cl)cc1
7. CCOC(=O)C1=C(C)NC(C)=C(C(=O)OCC)C1c1ccc(NC(=O)Nc2ccc(C(F)(F)F)cc2)cc1

A:
1. 42
2. 0
3. 0
4. 0
5. 83
6. 11
7. 74

Q: Can you share its inhibition at 10 µM? I mean this molecule: CCOC(=O)C1=C(C)NC(C)=C(C(=O)OCC)C1c1ccc(NC(=O)Nc2cc(C(F)(F)F)ccc2Cl)cc1
A: 0

All figures here come from ChEMBL document CHEMBL3044536.
